B1: glmS ribozyme (parent)
chain: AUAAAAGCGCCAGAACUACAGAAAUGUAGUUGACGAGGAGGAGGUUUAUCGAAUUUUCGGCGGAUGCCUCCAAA

# Variants of: B1
# Assay info: self-cleavage kobs at 40 uM GlcN6P; higher = faster cleavage; RNA array
# Test settings: with glucosamine-6-phosphate
This sample holds only a part of the variants without activity.
Readout type: self-cleavage kobs at 40 uM GlcN6P

[ask] Looking for the measured self-cleavage kobs at 40 uM GlcN6P of A52G A64G , can you help?
[reply] 2.83e-05 s⁻¹

[ask] And for C11G A39U C50G ?
[reply] < 1e-05 s⁻¹

[ask] And for A12U A15U A42G ?
[reply] 0.000666 s⁻¹

[ask] And for C34U A53G ?
[reply] < 1e-05 s⁻¹

[ask] And for G41U A48U C68A ?
[reply] < 1e-05 s⁻¹

[ask] And for U49A C50G U57A C67A C71A ?
[reply] 0.000473 s⁻¹

[ask] And for U45C C50G ?
[reply] < 1e-05 s⁻¹

[ask] And for G13U G44U G51C ?
[reply] < 1e-05 s⁻¹

[ask] And for U46C U57C ?
[reply] < 1e-05 s⁻¹

[ask] And for A14C A15G ?
[reply] 5.61e-05 s⁻¹

[ask] And for G9A U31A ?
[reply] < 1e-05 s⁻¹
